# target_entity: hENPP2 (UniProtKB/SwissProt Q13822) (Homo sapiens (Human), UniProt Q13822)
# assay_info: hENPP2 biochemical assay, LPC as substrate
# condition_context: LPC (palmitoyl 16:0) as substrate
Readings of IC50 for the listed molecules

molecule	IC50
CCc1nc2ccc(N3CCN(CC(N)=O)CC3)cn2c1N(C)c1nc(-c2ccc(F)cc2)cs1	500 to 1000 nM

# get_value(readout= IC50, system= hENPP2 (UniProtKB/SwissProt Q13822) (Homo sapiens (Human), UniProt Q13822)) for CCc1nc2ccc(N3CCN(CC(=O)N(C)C)CC3)cn2c1N(C)c1nc(-c2ccc(F)cc2)c(CO)s1
500 to 1000 nM

Record CCc1nc2ccc(C3CCN(S(=O)(=O)CCCO)CC3)cn2c1N(C)c1nc(-c2ccc(F)cc2)cs1 : what is its IC50 with hENPP2 (UniProtKB/SwissProt Q13822) (Homo sapiens (Human), UniProt Q13822)?
500 to 1000 nM

Request - read-out IC50 | tested on hENPP2 (UniProtKB/SwissProt Q13822) (Homo sapiens (Human), UniProt Q13822) | molecule CCc1nc2ccc(N3CCN(C(=O)CCCO)CC3)cn2c1N(C)c1nc(-c2ccc(F)cc2)cs1
> 1000 nM

Hi! What's the reported IC50 for CCc1nc2ccc(N3CCN(Cc4ncco4)CC3)cn2c1N(C)c1nc(-c2ccc(F)cc2)cs1 on hENPP2 (UniProtKB/SwissProt Q13822) (Homo sapiens (Human), UniProt Q13822)?
> 1000 nM

Identify the measured IC50 of CCc1nc2ccc(C3=CCN(S(C)(=O)=O)CC3)cn2c1N(C)c1nccc(-c2ccc(F)cc2)n1 for hENPP2 (UniProtKB/SwissProt Q13822) (Homo sapiens (Human), UniProt Q13822).
> 1000 nM

Fill in the recorded IC50 for this molecule, with hENPP2 (UniProtKB/SwissProt Q13822) (Homo sapiens (Human), UniProt Q13822) as test system: CCc1nc2ccc(C3CCN(S(C)(=O)=O)CC3)cn2c1N(C)c1nc(-c2ccc(F)c(F)c2)cs1
> 1000 nM

Return IC50 measured with hENPP2 (UniProtKB/SwissProt Q13822) (Homo sapiens (Human), UniProt Q13822) given this molecule: CCc1nc2ccc(C3CCN(S(=O)(=O)CCCN(C)C)CC3)cn2c1N(C)c1nc(-c2ccc(F)cc2)c(CO)s1
100 to 500 nM

====

# target_entity: hENPP2 (UniProtKB/SwissProt Q13822) (Homo sapiens (Human), UniProt Q13822)
# assay_info: fluorescent hENPP2 biochemical assay, FS-3 as substrate
# condition_context: read-out: FS3-IC50
# Protocol: Compound IC50 values are determined in a fluorescent hENPP2 (UniProtKB/SwissProt Sequence ref Q13822) biochemical assay using the fluorogenic autotaxin substrate FS-3 as substrate. FS-3 is a doubly labeled analog of LPC wherein the fluorophore is quenched through intramolecular energy transfer. Without hENPP2, the emission of the probe is quenched. If the substrate is hydrolyzed by hENPP2, the emission of the probe is not quenched anymore resulting in a fluorescence increase. […]
measured_property: IC50

See these solved cases before continuing.
compound	IC50
CN(c1nc(-c2ccc(Cl)cc2)cs1)c1c(CC(F)(F)F)nc2ccc(C3=CCN(S(C)(=O)=O)CC3)cn12 [Compound 185]	0.01 to 100 nM
CCc1nc2ccc(C3CCN(S(C)(=O)=O)CC3)cn2c1N(C)c1nc(-c2ccc(F)cc2F)cs1 [Compound 100]	0.01 to 100 nM
CCc1nc2ccc(C3CCNCC3)cn2c1N(C)c1nc(-c2ccc(F)cc2)cs1 [Compound 216]	0.01 to 100 nM
CCc1nc2ccc(C3CCN(C(=O)CN4CCCC4)CC3)cn2c1N(C)c1nc(-c2ccc(F)cc2)cs1 [Compound 126]	0.01 to 100 nM
CCc1nc2ccc(C3CCN(CC(=O)N(C)C)CC3)cn2c1N(C)c1nc(-c2ccc(F)cc2C#N)cs1 [Compound 171]	0.01 to 100 nM

Name the recorded IC50 for CCc1nc2ccc(C3=CCS(=O)(=O)CC3)cn2c1N(C)c1nc(-c2ccc(Cl)cc2)cs1 [Compound 76] .
0.01 to 100 nM

What does the record list as IC50 for CCc1nc2ccc(N3CCN(CC(=O)N4CCC(NC(C)=O)C4)CC3)cn2c1N(C)c1nc(-c2ccc(F)cc2)cs1 (centres unmarked) [Compound 27] ?
0.01 to 100 nM

====

# target_entity: hENPP2 (UniProtKB/SwissProt Q13822) (Homo sapiens (Human), UniProt Q13822)
# assay_info: hENPP2 biochemical assay, LPC as substrate
# condition_context: LPC (palmitoyl 16:0) as substrate
pIC50: −log10 of the molar value.
measured_property: pIC50

compound	pIC50
CCOC(=O)CN1CCC(c2ccc3nc(CC)c(N(C)c4nc(-c5ccc(F)cc5)cs4)n3c2)CC1 [Compound 109]	6.30 to 7.00
CCc1nc2ccc(N3CCN(C(=O)C4CCN(C(=O)OC(C)(C)C)C4)CC3)cn2c1N(C)c1nc(-c2ccc(F)cc2)cs1 (stereo not shown) [Compound 45]	< 6.00
CCc1nc2ccc(C3CCN(S(=O)(=O)CCCOC(C)=O)CC3)cn2c1N(C)c1nc(-c2ccc(F)cc2)cs1 [Compound 93]	6.30 to 7.00
[2H]c1sc(N(c2c(CC)nc3ccc(C4CCN(S(C)(=O)=O)CC4)cn23)C([2H])([2H])[2H])nc1-c1ccc(F)cc1 [Compound 103]	6.30 to 7.00
CCc1nc2ccc(C3CCN(CC(N)=O)CC3)cn2c1N(C)c1nc(-c2ccc(F)cc2)cs1 [Compound 125]	< 6.00

# input compound: CCc1nc2ccc(N3CCN(C(=O)C4CCCN4)CC3)cn2c1N(C)c1nc(-c2ccc(F)cc2)cs1 (stereo not shown) [Compound 46] ; wanted: its pIC50
< 6.00

// returns reported pIC50 for input CCc1nc2ccc(C3=CCN(S(=O)(=O)CCl)CC3)cn2c1N(C)c1nc(-c2ccc(F)cc2)cs1 [Compound 67]
< 6.00

====

# target_entity: hENPP2 (UniProtKB/SwissProt Q13822) (Homo sapiens (Human), UniProt Q13822)
# assay_info: hENPP2 biochemical assay, LPC as substrate
# condition_context: LPC (palmitoyl 16:0) as substrate
pIC50: −log10 of the molar value.
measured_property: pIC50

Reference set (10 entries):
molecule	data_value
CCc1nc2ccc(C3CCN(CC(=O)N4CC[C@@H](O)C4)CC3)cn2c1N(C)c1nc(-c2ccc(F)cc2)cs1	6.30 to 7.00
CCc1nc2ccc(C3CCNCC3)cn2c1N(C)c1nc(-c2ccc(F)cc2)cs1	< 6.00
CCc1nc2c(C)cc(N3CCN(CC(=O)N4CC[C@H](O)C4)CC3)cn2c1N(C)c1nc(-c2ccc(F)cc2)c(C#N)s1	6.30 to 7.00
CCc1nc2ccc(C3CCN(S(=O)(=O)CCCO)CC3)cn2c1N(C)c1nc(-c2ccc(F)cc2)c(F)s1	< 6.00
CCc1nc2ccc(N3CCOC3=O)cn2c1N(C)c1nc(-c2ccc(Cl)cc2)cs1	< 6.00
CCc1nc2ccc(C3CCN(CC(=O)N4CCC(CO)C4)CC3)cn2c1N(C)c1nc(-c2ccc(F)cc2)cs1 (stereo not drawn)	6.30 to 7.00
CCc1nc2ccc(C3CCN(C(=O)CN(C)C)CC3)cn2c1N(C)c1nc(-c2ccc(F)cc2)cs1	6.30 to 7.00
CCc1nc2ccc(N3CCN(CC(=O)NC)CC3)cn2c1N(C)c1nc(-c2ccc(F)cc2C#N)c(C)s1	6.00 to 6.30
CCc1nc2ccc(C3CCN(S(C)(=O)=O)CC3)cn2c1N(C)c1nc(-c2ccc(F)cc2NC(C)=O)cs1	< 6.00
CCc1nc2ccc(C3CCN(S(C)(=O)=O)CC3O)cn2c1N(C)c1nc(-c2ccc(F)cc2)cs1 (stereo not drawn)	< 6.00

So what does the record say about pIC50 for CCc1nc2ccc(C3CCN(S(C)(=O)=O)CC3)cn2c1N(C)c1nc(-c2ccc(OC(F)(F)F)cc2)cs1 ?
< 6.00

Using the record for CCc1nc2ccc(C3CCN(CC4COC(=O)O4)CC3)cn2c1N(C)c1nc(-c2ccc(F)cc2)cs1 (stereo not drawn) , report its pIC50.
6.30 to 7.00

Look at this molecule and give its reported pIC50. CCc1nc2ccc(C3CCN(CC(=O)N4CC(O)C4)CC3)cn2c1N(C)c1nc(-c2ccc(F)cc2)c(C(=O)C(F)(F)F)s1
7.00 to 11.00

Could you share which pIC50 value was measured for CCc1nc2ccc(C3CCN(CC(=O)N(C)C)CC3)cn2c1N(C)c1nc(-c2ccc(F)cc2)c(C#N)s1 ?
7.00 to 11.00

I have this molecule here, CCc1nc2ccc(C3=CCOCC3)cn2c1N(C)c1nc(-c2ccc(Cl)cc2)cs1 , and I need its recorded pIC50.
< 6.00

# credit: patent US9670204B2
